molecular target: Carbonyl reductase [NADPH] 1 (Homo sapiens); assay: Binding affinity to human recombinant carbonyl reductase 1 expressed in Escherichia coli assessed as NADPH oxidation using isatin as substrate
Sequence (P16152 whole entry): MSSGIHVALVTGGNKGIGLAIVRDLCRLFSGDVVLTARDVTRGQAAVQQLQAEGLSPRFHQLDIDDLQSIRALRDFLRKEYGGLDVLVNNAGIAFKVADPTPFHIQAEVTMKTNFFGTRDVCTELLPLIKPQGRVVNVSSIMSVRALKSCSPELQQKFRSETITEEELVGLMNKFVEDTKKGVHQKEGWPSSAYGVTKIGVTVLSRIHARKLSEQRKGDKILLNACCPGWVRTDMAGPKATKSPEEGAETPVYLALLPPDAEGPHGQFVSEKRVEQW
What pIC50 was measured for each of the following?
// scale note: pIC50 = -log10(conc_M); give the bare number

Quick check: pIC50 on Carbonyl reductase [NADPH] 1 (Homo sapiens), item `COc1ccc(-c2coc3cc(O)cc(O)c3c2=O)cc1` ? 4.90

Proceed to `Oc1cc(Cl)ccc1Oc1ccc(Cl)cc1Cl` 6.40

Same again, this time with `C[C@H]1CCCC(=O)[C@@H](C)CC/C=C/c2cc(O)cc(O)c2C(=O)O1` 6.68

Now this one: `O=c1cc(-c2ccccc2)oc2cc(O)cc(O)c12` 6.17

Next entry: `C[C@@H]1C[C@H]2O[C@@H]2/C=C\C=C\C(=O)Cc2c(Cl)c(O)cc(O)c2C(=O)O1` 5.49

Would you mind doing `O=C1C[C@@H](c2ccc(O)cc2)Oc2cc(O)cc(O)c21` as well? 4.67

Then `COc1cc(O)c2c(c1)oc(=O)c1c3cc(O)c(O)cc3oc21` ? 5.42
